# System: CCRIS mutagenicity, Ames/micronucleus/aberration tests
# assay summary: CCRIS mutagenicity studies
# assay context: Test System: MOUSE LYMPHOMA; Strain/Indicator: L5178Y (TK+/TK-); Metabolic Activation: NONE; Method: SUSPENSION/PLATE
Active and inactive are the calls of the source. No rule for the calls is given here.
Your response should consist of one outcome taken from active, inactive

Would you mind telling me which call this test gave C=C(C)[C@H]1CC=C(C)CC1 ?
inactive

Input CC(C)(C#N)N=NC(C)(C)C#N
inactive

Input CCN(CC)c1ccc2nc3ccc(=[N+](CC)CC)cc-3oc2c1
active

----------
# Tested on: CCRIS mutagenicity, Ames/micronucleus/aberration tests
# assay summary: CCRIS mutagenicity studies
# assay context: Test System: AMES SALMONELLA TYPHIMURIUM; Strain/Indicator: TA100; Metabolic Activation: RAT, LIVER, S-9, AROCLOR 1254; Method: STANDARD PLATE
Activity calls are given as the source filed them. No rule for the calls is given here.
measured property: mutagenic call

O=Cc1cccc(-c2ccccc2)c1
inactive; negative
COC(=O)[C@H]1[C@H]2C[C@@H]3c4[nH]c5cc(OC)ccc5c4CCN3C[C@H]2C[C@@H](OC(=O)c2cc(OC)c(OC)c(OC)c2)[C@@H]1OC
inactive; negative
Nc1cc(CCO)c(N)c([N+](=O)[O-])c1
active; positive
CCCCCCCCCCCCCCCC(=O)OC[C@H](O)[C@H]1OC(=O)C(O)=C1O
inactive; negative
CC1(C)C(C=C(Cl)Cl)C1C(=O)OC(C#N)c1cccc(Oc2ccccc2)c1 (configuration not stated)
inactive; negative

Quick one: mutagenic call of NC(=O)CCC(=O)Nc1ccc(Cl)c(Cl)c1Cl ?
inactive; negative

Input c1ccc2c(c1)ccc1ccc3c(c12)CCC3
active; positive

----------
# Test system: CCRIS mutagenicity, Ames/micronucleus/aberration tests
# assay summary: CCRIS mutagenicity studies
# assay context: Test System: AMES SALMONELLA TYPHIMURIUM; Strain/Indicator: TA98; Metabolic Activation: RAT, LIVER, S-9, AROCLOR 1254; Method: STANDARD PLATE
Active and inactive are the calls of the source. The rule behind the calls is not given here.
Your response should consist of one outcome taken from active, inactive

Would you mind telling me which call this test gave CN1C[C@H](C(=O)N[C@]2(C)O[C@@]3(O)[C@@H]4CCCN4C(=O)[C@H](Cc4ccccc4)N3C2=O)C=C2c3cccc4[nH]cc(c34)C[C@H]21 ?
inactive

Input Nc1ccc(CCc2ccc(N)cc2)cc1
active

Input CCOC(=O)C1C(C=C(C)C)C1(C)C (stereo not drawn)
inactive

Input C=CCN(CC=C)c1cc(NC(C)=O)c(N=Nc2c(Br)cc([N+](=O)[O-])cc2[N+](=O)[O-])cc1OC
active

Input O=[N+]([O-])c1ccccc1C(F)(F)F
inactive

Input CN(C)c1ccc([C@H]2C[C@]3(C)[C@@H](CC[C@]3(O)CCCO)[C@@H]3CCC4=CC(=O)CCC4=C32)cc1
inactive

Input C=CCc1ccc2c(c1)OCO2
inactive

Input CSCC[C@H](NC(=O)COc1ccc(Cl)cc1Cl)C(=O)O
inactive

Input O=C(O)/C=C/c1cccc([N+](=O)[O-])c1
inactive

Input O=S1OCC2C(CO1)C1(Cl)C(Cl)=C(Cl)C2(Cl)C1(Cl)Cl (stereo not drawn)
inactive

Input CC(=O)Nc1ccc2c3c(cccc13)-c1cc(O)ccc1-2
active

Input CCN(CC)c1cc(NC(C)=O)c(N=Nc2c(Br)cc([N+](=O)[O-])cc2[N+](=O)[O-])cc1OC
active

Input Cc1cnc2c(n1)c(C)c(C)c1c2nc(N)n1C
active

Input CCN(CC)c1ccc(N=Nc2c(Cl)cc([N+](=O)[O-])cc2[N+](=O)[O-])cc1
active

Input c1ccc2c(c1)c1cccc3ccc4cccc2c4c31
active

Input Clc1c2ccccc2cc2ccccc12
active

Input C=Cc1ccc(O)c(OC)c1
inactive

Input O=C1c2ccccc2-c2cccc3cccc1c23
active

Input Cc1cc(Cl)ccc1N
active

Input c1cscn1
inactive

Input O=C1c2cccc(O)c2C(=O)c2cccc(O)c21
active

Input O=[N+]([O-])C1=Cc2cccc3c2c1cc1ccc2ccccc2c13
inactive

Input Cc1cccc2c1C(C)c1ccccc1-2 (stereo not drawn)
active

----------
# System: CCRIS mutagenicity, Ames/micronucleus/aberration tests
# assay summary: CCRIS mutagenicity studies
# assay context: Test System: AMES SALMONELLA TYPHIMURIUM; Strain/Indicator: TA1535; Metabolic Activation: RAT, LIVER, S-9, AROCLOR 1254; Method: STANDARD PLATE
Activity calls are given as the source filed them. No rule for the calls is given here.
Your response should consist of one outcome taken from active, inactive

Would you mind telling me which call this test gave O=C1CN=C(c2ccccc2)c2cc([N+](=O)[O-])ccc2N1 ?
inactive

Input CCOC(=O)C1C(C=C(C)C)C1(C)C (stereo not drawn)
inactive

Input O=C(O)CCc1ccccc1
inactive

Input NCCN1CCNCC1
inactive

Input CNCCC=C1c2ccccc2CCc2ccccc21
inactive

Input CCN(CC)c1ccc(N=Nc2c(Cl)cc([N+](=O)[O-])cc2[N+](=O)[O-])cc1
active

Input CCN(CC)c1cc(NC(C)=O)c(N=Nc2c(Br)cc([N+](=O)[O-])cc2[N+](=O)[O-])cc1OC
inactive

Input CC(Cc1ccc(O)c(O)c1)C(C)Cc1ccc(O)c(O)c1 (stereo not drawn)
inactive

----------
# Tested on: CCRIS mutagenicity, Ames/micronucleus/aberration tests
# assay summary: CCRIS mutagenicity studies
# assay context: Test System: AMES SALMONELLA TYPHIMURIUM; Strain/Indicator: TA98(NR); Metabolic Activation: NONE; Method: PREINCUBATION
The source made the active and inactive calls. How the calls were made is not given here.
Your response should consist of one outcome taken from T for active, F for inactive

Would you mind telling me which call this test gave CC(C)[N+](=O)[O-] ?
T

Input O=[N+]([O-])c1ccc2nc3c([N+](=O)[O-])cccc3nc2c1
T

Input Nc1ccc([N+](=O)[O-])cc1N
T

Input O=[N+]([O-])c1ccc(CNc2ncnc3nc[nH]c23)cc1
F

----------
# Tested on: CCRIS mutagenicity, Ames/micronucleus/aberration tests
# assay summary: CCRIS mutagenicity studies
# assay context: Test System: AMES SALMONELLA TYPHIMURIUM; Strain/Indicator: TA97; Metabolic Activation: HAMSTER, LIVER, S-9, AROCLOR 1254 (10%); Method: PREINCUBATION
The source made the active and inactive calls. No rule for the calls is given here.
Your response should consist of one outcome taken from label 1 for active, label 0 for inactive

Would you mind telling me which call this test gave Nc1ccccc1C(=O)OC1CCCCC1 ?
label 0

Input CC(C)(C)c1cc(O)ccc1O
label 0

Input Nc1ccc([N+](=O)[O-])c(N)c1
label 0

Input CCN(CC)c1ccc(N=O)c(O)c1
label 0

Input Oc1c(Cl)c(Cl)cc(Cl)c1Cl
label 0

Input CC(=O)Nc1ccc(N=Nc2cc(C)ccc2O)cc1
label 1

Input CCCCC(CC)COCCCN (stereo not drawn)
label 0

Input CC(C)C(C)(C)C(C)(C)C(C)(C)S
label 0

----------
# System: CCRIS mutagenicity, Ames/micronucleus/aberration tests
# assay summary: CCRIS mutagenicity studies
# assay context: Test System: AMES SALMONELLA TYPHIMURIUM; Strain/Indicator: TA98; Metabolic Activation: RAT, LIVER, S-9, AROCLOR 1254; Method: STANDARD PLATE
Calls of active or inactive are those of the source. How the calls were made is not given here.
measured property: mutagenic call

The following molecules have reported results that may help.
ClC(Cl)=C(c1ccc(Cl)cc1)c1ccc(Cl)cc1
inactive; negative
CCOC(=O)c1[nH]c2ccccc2c1N=Cc1ccc(NC(C)=O)cc1
inactive; negative
C1=CC2OC2c2ccc3c4c5c(cccc5cc3c21)C=C4 (configuration not stated)
active; positive
Br/C=C/Br
active; positive
Nc1cc(CCO)c(N)c([N+](=O)[O-])c1
active; positive
O=c1oc2cccc3ccc4c5ccccc5cc1c4c32
active; positive

Quick one: mutagenic call of NC(=O)/N=N/C(N)=O ?
inactive; negative

Input Nc1ccn([C@H]2CC[C@@H](CO)O2)c(=O)n1
inactive; negative

Input O=S(=O)(c1cc(Cl)cc(Cl)c1O)c1cc(Cl)cc(Cl)c1O
inactive; negative

Input CCN(CC)C(=S)SSC[C@H](NC(C)=O)C(=O)O
inactive; negative

Input C1=Cc2c3ccc4ccccc4c3cc3cccc1c23
active; positive

Input O=NN1CCSC1
active; positive

----------
# Test system: CCRIS mutagenicity, Ames/micronucleus/aberration tests
# assay summary: CCRIS mutagenicity studies
# assay context: Test System: AMES SALMONELLA TYPHIMURIUM; Strain/Indicator: TA97; Metabolic Activation: NONE; Method: STANDARD PLATE
The source made the active and inactive calls. How the calls were made is not given here.
Your response should consist of one outcome taken from True (active), False (inactive)

Would you mind telling me which call this test gave O=C/C(=C(\Cl)C(=O)O)C(Cl)Cl ?
False

Input C=CC#N
False

Input Cc1nc2c(c3[nH]c4ccccc4c13)C(=O)C(N1CCN(C)CC1)=CC2=O
False

Input O=C(O)/C(Cl)=C(/C(=O)O)C(Cl)Cl
False

Input NNc1nnc(NN)c2ccccc12
True
